# Tested on: Aβ plaques on AD sections
# EXPERIMENT: Assay 1 (fluorescence based assay): direct staining of human Alzheimer's disease brain sections
# Format: binding
# Set-up: key: − (No); +/− (very weak); + (weak); ++ (good); +++ (strong)
# CONDITION NOTES: staining intensity; compound 100 μM, frozen amygdala sections, AD Braak stage V-VI
QUANTITY: Staining of Aβ plaques on AD sections

structure_notation=F[C@@H]1CCN(c2ccc(-c3ccc4sc(-c5cccnc5)cc4n3)cn2)C1 quantity="Staining of Aβ plaques on AD sections" value=−
structure_notation=c1cncc(-c2cnc3sc(-c4ccc(N5CCCC5)nc4)nc3c2)c1 quantity="Staining of Aβ plaques on AD sections" value=+
structure_notation=O=C1COCCN1c1ccc2nc(-c3ccc(N4CC[C@H](F)C4)nc3)sc2c1 quantity="Staining of Aβ plaques on AD sections" value=+
structure_notation=CNc1ccc(-c2cc3ccc(Nc4ccc(N5CCOCC5)cc4)nc3s2)cc1 quantity="Staining of Aβ plaques on AD sections" value=+++
structure_notation=CNc1ccc(-c2ccc3cc(-c4ccnc(OC)c4)sc3n2)cc1 quantity="Staining of Aβ plaques on AD sections" value=++
structure_notation=O=C1COCCN1c1ccc2nc(-c3ccc(N4CCC[C@H](F)C4)nc3)sc2c1 quantity="Staining of Aβ plaques on AD sections" value=+
structure_notation=c1cncc(-c2cc3nc(-c4ccc(N5CCCC5)nc4)sc3cn2)c1 quantity="Staining of Aβ plaques on AD sections" value=+
structure_notation=CNc1ccc(-c2ccc3cc(-c4cccc(OC)c4)sc3n2)cc1 quantity="Staining of Aβ plaques on AD sections" value=++
structure_notation=O=C1c2sc(-c3ccc(N4CCCC4)nc3)nc2CCN1CCF quantity="Staining of Aβ plaques on AD sections" value=+

* * *

# MEASURED TARGET: aSyn aggregates on PD sections (Homo sapiens, UniProt P37840)
# Construct: 20 μm frozen sections from amygdala were purchased from an external provider (Tissue Solutions Ltd.); tissue Tissue Solutions Ltd; host or cells: human PD amygdala, frozen sections, Braak stage V-VI
# EXPERIMENT: Assay 1 (fluorescence based assay): direct staining of human Parkinson's disease brain sections
# Type: binding
# Parameters: key: − (No); +/− (very weak); + (weak); ++ (good); +++ (strong)
# CONDITION NOTES: staining intensity; compound 100 μM, frozen amygdala sections, PD Braak stage V-VI
QUANTITY: Staining of aSyn aggregates on PD sections

structure_notation=O=C1COCCN1c1ccc2nc(-c3ccc(N4CCC[C@H](F)C4)nc3)sc2c1 measured_target="aSyn aggregates on PD sections (Homo sapiens, UniProt P37840)" value=++
structure_notation=O=C1NCCc2nc(-c3ccc(N4CC[C@H](F)C4)nc3)sc21 measured_target="aSyn aggregates on PD sections (Homo sapiens, UniProt P37840)" value=+
structure_notation=c1cncc(-c2ccc3sc(-c4ccc(N5CCCC5)nc4)nc3n2)c1 measured_target="aSyn aggregates on PD sections (Homo sapiens, UniProt P37840)" value=++
structure_notation=Fc1nc(N2CCCC2)ccc1-c1nc2nc(-c3cc[nH]c3)ccc2s1 measured_target="aSyn aggregates on PD sections (Homo sapiens, UniProt P37840)" value=++
structure_notation=CNc1ccc(-c2ccc3cc(-c4ccc(C#N)cn4)sc3n2)cn1 measured_target="aSyn aggregates on PD sections (Homo sapiens, UniProt P37840)" value=+
structure_notation=c1cncc(-c2cc3nc(-c4ccc(N5CCCC5)nc4)sc3cn2)c1 measured_target="aSyn aggregates on PD sections (Homo sapiens, UniProt P37840)" value=++
structure_notation=Nc1ccc(-c2cc3ccc(-c4ccc(F)nc4)nc3s2)cn1 measured_target="aSyn aggregates on PD sections (Homo sapiens, UniProt P37840)" value=+++
structure_notation=O=C1COCCN1c1ccc2nc(-c3cnn(CCF)c3)sc2c1 measured_target="aSyn aggregates on PD sections (Homo sapiens, UniProt P37840)" value=+
structure_notation=F[C@@H]1CCN(c2ccc(-c3nc4nc(-c5cccnc5)ccc4s3)cn2)C1 measured_target="aSyn aggregates on PD sections (Homo sapiens, UniProt P37840)" value=++
